Entry source: the supplement of paper PMC9170038

Tested on: MS2 coat protein
Experiment: apparent KD of MS2 coat protein; higher = weaker reporter binding
Settings: Eterna round: R107; input ligand: theophylline 20 uM
Binning scheme for apparent KD of MS2 coat protein: low: < 0.02 µM; mid: ≥ 0.02 µM and < 0.06 µM; high: ≥ 0.06 µM

GGUGUUACGUCGGCCGCCACUAUACUACAUGAGGAUCACCCAUGUCAUCCCUUCAAUUGGUAGCCUAGGACCGGGACAGAAUUCG [theeternabot_exclusion_MS2_Trp_B_8]
mid

stdin: Class for CUGUACAUCUCGGCCGCCACUGACAUGAGGAUCACCCAUGUAGUACCUGAGAUAGACAUAUCUUACAGGACCGGGAGGUGUGCAG [SSTryp B #31] ?
stdout: low

stdin: Class for UUCUACAUGAGGAUCACCCAUGUAAACGAUACCAGACGAGUAUUAGUCCCUUGGCAGCGUAGAGUGUCGUUUAUAGUAGGAUACC [TheoA-ms2@5] ?
stdout: mid

stdin: Class for ACAUGAGGAUCACCCAUGUUCCUCUUUGAUACCAGUGAGUUGUUUCGCCCUUGGCAGCGAGUUUUUUUUUUUUUGUUUUGUUUGG [6.R] ?
stdout: high

stdin: Class for UACUUGCUGACGGCCGCCACUAGUACAUGAGGAUCACCCAUGUACGGUCGCCCGGUGUGAUCCACUAGGACCGGGUCAGCAAGAU [(Trp1)-(Ms2)-(T)'-(M)'-(Trp2)_Design24] ?
stdout: mid

stdin: Class for CCUAUGCAGUCGGCCGCCACUGAUAACGUUAUCGUUACCUCAGAAACAUGAGGAUCACCCAUGUACAGGACCGGGACUGUAUAGG [Ex Tryptophan B 19] ?
stdout: low

stdin: Class for CGAGUGAGUUCAAUCGAAUAACGGUUUUCGCGAGGACCGGUACGGCCGCCACUCGUGUGAUAUCACACAUGAGGAUCACCCAUGU [3'end-1] ?
stdout: mid

stdin: Class for UAUACAUGGUAUAAAUAUAUAUAUAAGAAACGAGGACCGGUACGGCCGCCACUCGUGCCGGAAACAUGAGGAUCACCCAUGUAUU [AK1 Exclusion TrypA mod IceBolt] ?
stdout: mid

stdin: Class for AUAAGUAAUGUUACGUGUUUUAUUACAGAUACCAGACUAUACGUUGUCCCUUGGCAGCUGAAUUACAUGAGGAUCACCCAUGUUG [JR_ExcTheophyA_Sub004] ?
stdout: low

stdin: Class for GGUUGGUCGCAGGAUACCAGUCCACCCGUGAUACUGCUAAACAUGAGGAUCACCCAUGUCGACCCUUGGCAGCCUGUCCAUGCGU [theeternabot_exclusion_MS2_Theo_B_45] ?
stdout: mid

stdin: Class for AACAUGAGGAUCACCCAUGUCGGGCCGGAGCGAGGACCGGUACGGCCGCCACUCGAGACAUGAGGAUCACCCAUGUAGGGCGAAA [Exclusion Tryptophan A GF21] ?
stdout: high

stdin: Class for ACAUGAGGAUCACCCAUGUUCCUCAUUGAUACCAGUGAAUUUAGACGCCCUUGGCAGCGAGUUUUUUAAGAAGAAGUUUUUUUUU [6.E] ?
stdout: high

stdin: Class for AGUAAUCUAAGAGAUACCAGACGGUAUAUAACAUGAGGAUCACCCAUGUUUUGGGUGUACGUCCCUUGGCAGCUCAAAAUGAUAA [#06 Same State - Theophylline B] ?
stdout: high

stdin: Class for UCAUUUGAGUGAGAUGUAAGGUAUCAUGAUACCAGUAGAUAAUUAUACCCUUGGCAGCAUGACAUGAGGAUCACCCAUGUACAUG [Ad] ?
stdout: low
